// reported NF-kB SEAP reporter activity for each item listed
# Tested on: RAW-Dual
# protocol summary: NF-kB SEAP reporter activity, fold change vs agonist alone; cytotoxicity flag (confluency mask): cytotoxic (confluency <70% of control); higher = enhanced NF-kB activity
# conditions used: agonist: Pam2CSK4 (TLR2/6) 0.1 ug/mL
Whole data set: some 2,900 compounds, median “NF-kB SEAP reporter activity, fold change vs agonist alone” near 0.99, cut for the highest 2% near 2.6. Shown is part of a subset that was picked to be rich in the highest values.

Sample records with NF-kB SEAP reporter activity:
-- ask May I ask what NF-kB SEAP reporter activity has been recorded for COc1cc2c(Oc3ccc4[nH]c(C)cc4c3F)ncnc2cc1OCCCN1CCCC1 (library stock concentration (final ~1000-fold dilution): 10 mM) ?
-- reply 1.03

-- ask May I ask what NF-kB SEAP reporter activity has been recorded for COc1cc2c(Oc3ccc4[nH]c(C)cc4c3F)ncnc2cc1OCCCN1CCCC1.O=C(O)/C=C\C(=O)O (library stock concentration (final ~1000-fold dilution): 10 mM) ?
-- reply 1.61

Consider the additional molecule presented here.
-- ask May I ask what NF-kB SEAP reporter activity has been recorded for CC(Oc1ccc2[nH]nc(/C=C/c3cnn(CCO)c3)c2c1)c1c(Cl)cncc1Cl (stereo not drawn) (library stock concentration (final ~1000-fold dilution): 10 mM) ?
-- reply 0.0607

---

// reported NF-kB SEAP reporter activity for each item listed
# Tested on: RAW-Dual
# protocol summary: NF-kB SEAP reporter activity, fold change vs agonist alone; cytotoxicity flag (confluency mask): not cytotoxic; higher = enhanced NF-kB activity
# conditions used: agonist: LPS (TLR4) 0.1 ug/mL
In all, about 2,900 compounds were measured (“NF-kB SEAP reporter activity, fold change vs agonist alone”: median about 0.99, highest 2% from about 2.6 on). The entries come from a sample that favours the highest values as a whole.
Give a plain numeric answer without units written out.

-- ask Give RAW-Dual NF-kB SEAP reporter activity for CCN(CC)CCOC(=O)C(Cc1cccc2ccccc12)CC1CCCO1.O=C(O)C(=O)O (stereo not drawn) (library stock concentration (final ~1000-fold dilution): 10 mM)
-- reply 1.08

-- ask Give RAW-Dual NF-kB SEAP reporter activity for COc1ccc(C(=C2C(=O)Nc3ccccc32)c2ccc(OC)cc2)cc1 (library stock concentration (final ~1000-fold dilution): 10 mM)
-- reply 1.04

-- ask Give RAW-Dual NF-kB SEAP reporter activity for Cc1c[nH]c(C=C2C(=O)Nc3ccccc32)c1CCC(=O)O (library stock concentration (final ~1000-fold dilution): 10 mM)
-- reply 0.665

---

# Test system: RAW-Dual
# protocol summary: NF-kB SEAP reporter activity, fold change vs agonist alone; cytotoxicity flag (confluency mask): not cytotoxic; higher = enhanced NF-kB activity
# conditions used: agonist: ODN 1826 (TLR9) 0.5 ug/mL
In all, about 2,900 compounds were measured (“NF-kB SEAP reporter activity, fold change vs agonist alone”: median about 0.99, highest 2% from about 2.6 on). Shown is part of a subset that was picked to be rich in the highest values.
We'd kindly ask you to apply these NF-kB SEAP reporter activity classes: group 1: < 0.8; group 2: ≥ 0.8 and < 1; group 3: ≥ 1

Consider the following illustrative entries.
-- ask Which NF-kB SEAP reporter activity band matches Cc1ccc([N+](=O)[O-])cc1S(=O)(=O)N(C)C (library stock concentration (final ~1000-fold dilution): 10 mM) ?
-- reply group 2

-- ask Which NF-kB SEAP reporter activity band matches COc1ccc(S(=O)(=O)N(C(C)=O)c2ccccc2/C=C/c2cc[n+]([O-])cc2)cc1 (library stock concentration (final ~1000-fold dilution): 10 mM) ?
-- reply group 3

-- ask Which NF-kB SEAP reporter activity band matches Cc1nccn1CC1CCc2c(c3ccccc3n2C)C1=O.Cl (stereo unspecified) (library stock concentration (final ~1000-fold dilution): 10 mM) ?
-- reply group 2

Next:
-- ask Which NF-kB SEAP reporter activity band matches COc1ccc(S(=O)(=O)N(CCO)c2ccccc2CN(C)CC=Cc2ccc(Cl)cc2)cc1 (library stock concentration (final ~1000-fold dilution): 10 mM) ?
-- reply group 1

-- ask Which NF-kB SEAP reporter activity band matches N=C(N)NCCCC(N)C(=O)NCC(=O)NC(CC(=O)O)C(=O)O (stereo unspecified) (library stock concentration (final ~1000-fold dilution): 10 mM water) ?
-- reply group 3

-- ask Which NF-kB SEAP reporter activity band matches CCN(CC)Cc1ccc2cc(COC(=O)Nc3ccc(C(=O)NO)cc3)ccc2c1.Cl.O (library stock concentration (final ~1000-fold dilution): 10 mM) ?
-- reply group 2

-- ask Which NF-kB SEAP reporter activity band matches CNC(C)C(=O)NC1CN(C(=O)CC(C)C)CCC2CCC(C(=O)NC(c3ccccc3)c3ccccc3)N2C1=O (stereo unspecified) (library stock concentration (final ~1000-fold dilution): 10 mM) ?
-- reply group 3

-- ask Which NF-kB SEAP reporter activity band matches COc1ccc(Cn2ccc3ccc(C(=O)NO)cc32)cc1 (library stock concentration (final ~1000-fold dilution): 10 mM) ?
-- reply group 1

-- ask Which NF-kB SEAP reporter activity band matches CC#CC(=O)N1CCCC1c1nc(-c2ccc(C(=O)Nc3ccccn3)cc2)c2c(N)nccn12 (stereo unspecified) (library stock concentration (final ~1000-fold dilution): 10 mM) ?
-- reply group 2

-- ask Which NF-kB SEAP reporter activity band matches O=S(=O)(NCCSSCCNS(=O)(=O)c1cc(Cl)ccc1Cl)c1cc(Cl)ccc1Cl (library stock concentration (final ~1000-fold dilution): 10 mM) ?
-- reply group 1
